Tested on: ryegrass, It. (Italian ryegrass, Lolium multiflorum)
method.summary: Test A postemergence, Italian ryegrass
Type: in vivo
study.conditions: 125 g ai/ha, 0 to 100 scale
Please go through the items and note down their Plant response rating, Ryegrass, It..
Give your answer as a number; write no unit.

Task item: Suppose we examine the compound CC1=C(c2c(O)c(Cl)nn(C)c2=O)c2cc(C)ccc2CC1 ; what Plant response rating, Ryegrass, It. value has been reported?
Reply: 80

Task item: Can you share its Plant response rating, Ryegrass, It.? I mean this compound: CC1=C(c2c(O)c(C)nn(C)c2=O)c2ccccc2OC1
Reply: 10

Task item: Entry CC1=C(c2c(O)c(C)nn(C)c2=O)c2ccccc2CC1 has what Plant response rating, Ryegrass, It.?
Reply: 60

Task item: Given the entry Cc1nn(C)c(=O)c(C2=CCC(C)(C)c3ccccc32)c1O , report its measured Plant response rating, Ryegrass, It..
Reply: 30

Task item: Any idea what Plant response rating, Ryegrass, It. was measured for CC1=C(c2c(O)c(C)nn(C)c2=O)c2cc(C)ccc2CC1 ?
Reply: 20

Task item: Consider the compound shown here: CC(=O)Oc1c(C)nn(C)c(=O)c1C1=C(C)CCc2ccccc21 What is its recorded Plant response rating, Ryegrass, It.?
Reply: 80

* * *

System: sedge, umbrella (small-flower umbrella sedge, Cyperus difformis)
method.summary: Test B flooded paddy test, umbrella sedge
Assay type: in vivo
study.conditions: Flood, 250 g ai/ha applied to paddy water, 2-leaf stage, 13 to 15 d; scale of 0 to 100 where 0 is no effect and 100 is complete control
outcome.measure: Plant response rating, Sedge, Umbrella

Task item: Given CC1=C(c2c(O)c(C)nn(C)c2=O)c2cc(C)ccc2CC1 , state its recorded Plant response rating, Sedge, Umbrella.
Reply: 0

Task item: Give the measured Plant response rating, Sedge, Umbrella of Cc1nn(C)c(=O)c(C2=CCC(C)(C)c3ccccc32)c1O .
Reply: 0

Task item: Which value of Plant response rating, Sedge, Umbrella has been reported for CC1=C(c2c(O)c(Cl)nn(C)c2=O)c2cc(C)ccc2CC1 in the records?
Reply: 95

Task item: Given COc1c(C)nn(C)c(=O)c1C1=CCC(C)(C)c2ccccc21 , state its recorded Plant response rating, Sedge, Umbrella.
Reply: 0

Task item: Record request: Plant response rating, Sedge, Umbrella value, item CC(=O)Oc1c(C)nn(C)c(=O)c1C1=C(C)CCc2ccccc21
Reply: 0

Task item: Item under review: CC1=C(c2c(O)c(C)nn(C)c2=O)c2ccccc2CC1 . Reported Plant response rating, Sedge, Umbrella?
Reply: 0

Task item: Tell me the measured Plant response rating, Sedge, Umbrella of CC1=C(c2c(O)c(C)nn(C)c2=O)c2ccccc2OC1 , please.
Reply: 50

* * *

Test system: ryegrass, It. (Italian ryegrass, Lolium multiflorum)
method.summary: Test A preemergence, Italian ryegrass
Assay type: in vivo
study.conditions: 125 g ai/ha, 0 to 100 scale
Would you kindly list Plant response rating, Ryegrass, It. for each of these compounds?

Task item: Consider the compound CC1=C(c2c(O)c(C)nn(C)c2=O)c2ccccc2CC1 and give its measured Plant response rating, Ryegrass, It..
Reply: 40

Task item: Give the measured Plant response rating, Ryegrass, It. of COc1c(C)nn(C)c(=O)c1C1=CCC(C)(C)c2ccccc21 .
Reply: 0

Task item: # get_value(readout='Plant response rating, Ryegrass, It.', item= CC1=C(c2c(O)c(C)nn(C)c2=O)c2ccccc2OC1 )
Reply: 0

Task item: Item Cc1nn(C)c(=O)c(C2=CCC(C)(C)c3ccccc32)c1O has what recorded Plant response rating, Ryegrass, It.?
Reply: 0

Task item: Returns the measured Plant response rating, Ryegrass, It. for the input compound. Input: CC1=C(c2c(O)c(C)nn(C)c2=O)c2cc(C)ccc2CC1
Reply: 0

Task item: Please give the measured Plant response rating, Ryegrass, It. for this compound: CC(=O)Oc1c(C)nn(C)c(=O)c1C1=C(C)CCc2ccccc21
Reply: 70

Task item: Plant response rating, Ryegrass, It. for CC1=C(c2c(O)c(Cl)nn(C)c2=O)c2cc(C)ccc2CC1 ?
Reply: 10
